The reported measurements were obtained from patent US20170050966A1.

Experiment: Metabolic stability in liver microsomes
Format: in vitro ADME
Conditions: rat liver microsomes, male
Procedure: Metabolic stability of the compounds of Formula (I) was determined by standard liver microsome assays. Briefly, metabolic stability was tested by adding the compound to be tested dissolved in DMSO to human, dog, or rat liver microsomes. Assays were run with a starting concentration of 1 μM test compound. […] Following quench and centrifugation, samples were analyzed on HPLC/MS/MS.
quantityKind: Male Hepatic Clearance (mL/min/kg)

The cases that follow already have their Male Hepatic Clearance on record.
C[C@H]1CCCN1c1ncc(-c2nccc(NC(=O)[C@H](C)n3cnc4c3c(=O)n(C)c(=O)n4C)n2)cn1 : 34
C[C@@H](C(=O)Nc1ccnc(-c2cnc(N3CCCC3(C)C)nc2)n1)n1cnc2c1c(=O)n(C)c(=O)n2C : 29

A = C[C@H]1CCCN1c1ncc(-c2nccc(NC(=O)Cn3cnc4c3c(=O)n(C)c(=O)n4C)n2)cn1
B = C[C@@H](C(=O)Nc1ccnc(-c2cnc(N3CCC[C@H]3C(F)(F)F)nc2)n1)n1cnc2c1c(=O)n(C)c(=O)n2C
Q: Of A versus B , which is the one with smaller reported Male Hepatic Clearance? Write down the label attached to your selection.
Result: B
(B: 2 mL/min/kg, A: 25 mL/min/kg)

###

Target: human TRPA1 (hTRPA1) (Homo sapiens, UniProt O75762)
Construct: expressed in transfected cells
Sequence (O75762 whole entry): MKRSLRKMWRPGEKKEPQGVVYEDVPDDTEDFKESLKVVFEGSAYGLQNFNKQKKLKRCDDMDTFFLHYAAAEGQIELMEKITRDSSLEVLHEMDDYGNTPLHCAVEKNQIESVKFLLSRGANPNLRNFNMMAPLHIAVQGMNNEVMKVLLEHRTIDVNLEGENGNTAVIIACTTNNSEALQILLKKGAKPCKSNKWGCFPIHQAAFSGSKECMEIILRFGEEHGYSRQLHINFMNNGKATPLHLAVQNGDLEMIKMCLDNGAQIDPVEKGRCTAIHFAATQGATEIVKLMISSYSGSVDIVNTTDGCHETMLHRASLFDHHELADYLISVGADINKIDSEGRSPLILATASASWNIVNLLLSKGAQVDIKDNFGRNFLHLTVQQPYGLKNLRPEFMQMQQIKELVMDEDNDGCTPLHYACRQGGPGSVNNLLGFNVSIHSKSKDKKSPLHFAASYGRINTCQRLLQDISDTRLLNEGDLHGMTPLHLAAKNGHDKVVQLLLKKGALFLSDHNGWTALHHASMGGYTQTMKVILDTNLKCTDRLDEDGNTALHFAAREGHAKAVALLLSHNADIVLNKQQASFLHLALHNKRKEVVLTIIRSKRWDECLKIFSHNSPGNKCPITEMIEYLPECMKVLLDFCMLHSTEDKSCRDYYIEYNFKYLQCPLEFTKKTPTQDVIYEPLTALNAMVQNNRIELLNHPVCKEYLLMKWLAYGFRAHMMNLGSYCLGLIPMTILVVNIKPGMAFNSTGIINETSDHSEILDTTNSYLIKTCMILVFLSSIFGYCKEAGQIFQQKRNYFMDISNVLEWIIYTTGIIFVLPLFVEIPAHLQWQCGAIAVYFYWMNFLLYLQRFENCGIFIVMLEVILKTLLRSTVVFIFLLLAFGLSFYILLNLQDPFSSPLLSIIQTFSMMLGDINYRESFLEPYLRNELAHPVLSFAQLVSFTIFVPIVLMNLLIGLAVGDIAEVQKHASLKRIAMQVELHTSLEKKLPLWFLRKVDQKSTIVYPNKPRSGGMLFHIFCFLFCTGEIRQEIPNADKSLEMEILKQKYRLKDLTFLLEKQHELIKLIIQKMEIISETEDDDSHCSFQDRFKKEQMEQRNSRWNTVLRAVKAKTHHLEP
Test: Inhibition of human TRPA1, whole-cell patch clamp
Format: cell-based
Conditions: antagonist effect, whole cell patch configuration; read-out: hTRPA1
quantityKind: IC50 (µM)

[2H]C([2H])([2H])n1c(=O)n(C)c(=O)c2c1ncn2CC(=O)Nc1ccnc(-c2cnc(N3CCC[C@@H]3C)nc2)n1 : 0.107

1 = Cn1c(=O)c2c(ncn2CC(=O)Nc2ccnc(-c3cnc(N4CCC(C(F)(F)F)C4)nc3)n2)n(C)c1=O (centres unmarked)
2 = C[C@H]1CCCN1c1ncc(-c2nccc(NC(=O)Cn3cnc4c3c(=O)[nH]c(=O)n4C)n2)cn1
3 = Cn1c(=O)c2c(ncn2CC(=O)Nc2ccnc(-c3cnc(N4CC(F)(F)C4)nc3)n2)n(C)c1=O
4 = C[C@@H](C(=O)Nc1ccnc(-c2cnc(N3CCC[C@@H]3C(F)(F)F)nc2)n1)n1cnc2c1c(=O)n(C)c(=O)n2C
Q: # sort list by recorded IC50, greatest to least Would you mind listing the labels in the order requested?
Result: 3, 2, 1, 4
(3: 0.922 µM, 2: 0.436 µM, 1: 0.124 µM, 4: 0.0113 µM)

###

Biological target: UniProt P10635
Sequence (P10635 whole entry): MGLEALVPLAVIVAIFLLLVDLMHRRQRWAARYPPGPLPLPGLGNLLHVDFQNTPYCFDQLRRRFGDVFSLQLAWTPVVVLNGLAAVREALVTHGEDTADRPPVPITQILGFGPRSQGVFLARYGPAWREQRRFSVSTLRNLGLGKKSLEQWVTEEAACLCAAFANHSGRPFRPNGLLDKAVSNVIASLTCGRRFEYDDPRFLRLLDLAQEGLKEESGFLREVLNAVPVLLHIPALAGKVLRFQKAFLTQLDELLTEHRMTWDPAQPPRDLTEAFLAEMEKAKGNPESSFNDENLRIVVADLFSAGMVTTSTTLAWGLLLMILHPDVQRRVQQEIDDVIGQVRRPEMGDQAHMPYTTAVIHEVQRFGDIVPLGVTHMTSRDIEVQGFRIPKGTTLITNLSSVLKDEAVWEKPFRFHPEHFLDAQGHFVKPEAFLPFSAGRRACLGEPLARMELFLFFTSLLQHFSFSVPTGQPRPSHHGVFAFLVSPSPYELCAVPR
Assay: in vitro
quantityKind: inhibition at 1 μM (%)
Give just the numeric value; % need not be written.

Q: Record request: inhibition at 1 μM value, item C=C[C@H]1C[N@@]2CC[C@H]1C[C@@H]2[C@@H](O)c1ccnc2ccc(OC)cc12 [Quinidine, reference compound]
Result: 55.8

###

Assay: Plasma protein binding, equilibrium dialysis
Assay type: in vitro ADME
Conditions: pooled K2EDTA plasma, Human plasma, read-out: Mean % Bound ± SD (converted)
quantityKind: fraction unbound at 6 h, 1 μM
Just the number, please, no unit after it.

Q: Quick one: fraction unbound at 6 h, 1 μM of C[C@@H](C(=O)Nc1ccnc(-c2cnc(N3CCC[C@H]3C(F)(F)F)nc2)n1)n1cnc2c1c(=O)n(C)c(=O)n2C [Compound 2] ?
Result: 0.015

###

Biological target: CYP2C9 (Homo sapiens, UniProt P11712)
Sequence (P11712 whole entry): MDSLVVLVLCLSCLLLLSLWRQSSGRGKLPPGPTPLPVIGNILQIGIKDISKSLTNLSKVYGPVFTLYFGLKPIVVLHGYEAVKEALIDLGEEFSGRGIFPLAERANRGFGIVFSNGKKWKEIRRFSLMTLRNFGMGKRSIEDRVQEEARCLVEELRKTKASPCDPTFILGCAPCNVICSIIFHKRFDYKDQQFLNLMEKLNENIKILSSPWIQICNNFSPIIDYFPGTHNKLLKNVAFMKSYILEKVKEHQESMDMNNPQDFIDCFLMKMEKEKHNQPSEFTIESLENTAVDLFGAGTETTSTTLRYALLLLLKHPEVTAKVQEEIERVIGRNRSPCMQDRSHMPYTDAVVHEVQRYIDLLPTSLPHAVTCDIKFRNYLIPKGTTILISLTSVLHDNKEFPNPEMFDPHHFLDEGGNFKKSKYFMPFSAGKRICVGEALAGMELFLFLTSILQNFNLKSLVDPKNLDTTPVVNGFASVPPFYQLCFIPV
Experiment: in vitro
quantityKind: inhibition at 10 µM (%)
Give a bare numeral; the unit % is implied.

Q: // query inhibition at 10 µM value for entry Nc1ccc(S(=O)(=O)Nc2ccnn2-c2ccccc2)cc1 [Sulfaphenazole, reference compound]
Result: 95.3

###

Assay: Kinetic solubility in buffered solutions
Assay type: physicochemical
Settings: sodium acetate buffer, aqueous buffer, kinetic from dmso stock; pH 4.0, 50 mM sodium acetate, 24 hours ambient; read-out: pH 4.0 solubility
quantityKind: solubility kinetic at 24 h (µg/mL)

Completed entries (count: 4):
Cn1c(=O)c2c(ncn2CC(=O)Nc2ccnc(-c3cnc(N4CCCC4(C)C)nc3)n2)n(C)c1=O : 51
[2H]C([2H])([2H])n1c(=O)n(C)c(=O)c2c1ncn2CC(=O)Nc1ccnc(-c2cnc(N3CCC[C@@H]3C)nc2)n1 : 45
CC(C(=O)Nc1ccnc(-c2cnc(N3CCCC[C@@H]3C)nc2)n1)n1cnc2c1c(=O)n(C)c(=O)n2C (some centres unmarked) : 20
C[C@@H](C(=O)Nc1ccnc(-c2cnc(N3CCCC3(C)C)nc2)n1)n1cnc2c1c(=O)n(C)c(=O)n2C : 4

1 = C[C@H]1CCCN1c1ncc(-c2nccc(NC(=O)[C@H](C)n3cnc4c3c(=O)n(C)c(=O)n4C)n2)cn1
2 = C[C@H](C(=O)Nc1ccnc(-c2cnc(N3CCC[C@@H]3C)nc2)n1)n1cnc2c1c(=O)n(C)c(=O)n2C
3 = C[C@H]1CCCN1c1ncc(-c2nccc(NC(=O)Cn3cnc4c3c(=O)n(C)c(=O)n4C)n2)cn1
4 = C[C@H]1CCCCN1c1ncc(-c2nccc(NC(=O)Cn3cnc4c3c(=O)n(C)c(=O)n4C)n2)cn1
Q: Arrange the 4 molecules from largest to smallest solubility kinetic at 24 h. As an answer, provide the labels arranged in the order called for.
Result: 2, 1, 4, 3
(2: 50 µg/mL, 1: 34 µg/mL, 4: 11 µg/mL, 3: 6 µg/mL)
